# PROTOCOL: Pharmacokinetics in mice (iv and PO)
# Type: in vivo
# EXPERIMENTAL SETUP: mouse, in vivo, iv 1.0 mg/kg
PROPERTY LABEL: clearance

molecule="COCCCOc1cc2c(cc1OC)-c1c(F)c(=O)c(C(=O)O)cn1[C@H]1[C@@H]2CCC1(C)C [Compound 3.1]" property_label=clearance observed="6.9 mL/min/kg"
molecule="COCCCOc1cc2c(cc1OC)-c1cc(=O)c(C(=O)O)cn1[C@H]1[C@@H]2CCC1(C)C [Compound 1.1]" property_label=clearance observed="24.6 mL/min/kg"
molecule="COCCCOc1cc2c(cc1OC)-c1cc(=O)c(C(=O)O)cn1[C@H]1[C@@H]2OCC1(C)C [Compound 4.1]" property_label=clearance observed="12.7 mL/min/kg"

###

# clearance per entry
# PROTOCOL: Pharmacokinetics in dog (iv and PO)
# Type: in vivo
# EXPERIMENTAL SETUP: in vivo, iv 0.5 mg/kg
PROPERTY LABEL: clearance

smiles_text=COCCCOc1cc2c(cc1OC)-c1c(F)c(=O)c(C(=O)O)cn1[C@H]1[C@@H]2CCC1(C)C observed="1.3 mL/min/kg"
smiles_text=COCCCOc1cc2c(cc1OC)-c1cc(=O)c(C(=O)O)cn1[C@H]1[C@@H]2CCC1(C)C observed="6.4 mL/min/kg"
smiles_text=COCCCOc1cc2c(cc1OC)-c1cc(=O)c(C(=O)O)cn1[C@H]1[C@@H]2OCC1(C)C observed="2.7 mL/min/kg"

###

# PROTOCOL: Pharmacokinetics in dog (iv and PO)
# Type: in vivo
# EXPERIMENTAL SETUP: in vivo, iv 0.5 mg/kg, read-out: AUC iv
# AUC per entry
PROPERTY LABEL: AUC (µM·h)

compound="COCCCOc1cc2c(cc1OC)-c1c(F)c(=O)c(C(=O)O)cn1[C@H]1[C@@H]2CCC1(C)C [Compound 3.1]" unit_of_measurement=µM·h observed=13.3
compound="COCCCOc1cc2c(cc1OC)-c1cc(=O)c(C(=O)O)cn1[C@H]1[C@@H]2CCC1(C)C [Compound 1.1]" unit_of_measurement=µM·h observed=3.1
compound="COCCCOc1cc2c(cc1OC)-c1cc(=O)c(C(=O)O)cn1[C@H]1[C@@H]2OCC1(C)C [Compound 4.1]" unit_of_measurement=µM·h observed=6.2

###

# PROTOCOL: Pharmacokinetics in rat (iv and PO)
# Type: in vivo
# EXPERIMENTAL SETUP: in vivo, PO 2.0 mg/kg
# Cmax per entry
PROPERTY LABEL: Cmax

compound="COCCCOc1cc2c(cc1OC)-c1cc(=O)c(C(=O)O)cn1[C@H]1[C@@H]2OCC1(C)C [Compound 4.1]" observed="2600 nM"
compound="COCCCOc1cc2c(cc1OC)-c1c(F)c(=O)c(C(=O)O)cn1[C@H]1[C@@H]2CCC1(C)C [Compound 3.1]" observed="6500 nM"
compound="COCCCOc1cc2c(cc1OC)-c1cc(=O)c(C(=O)O)cn1[C@H]1[C@@H]2CCC1(C)C [Compound 1.1]" observed="1720 nM"

###

# PROTOCOL: Pharmacokinetics in mice (iv and PO)
# Format: in vivo
# EXPERIMENTAL SETUP: mouse, in vivo, PO 2.0 mg/kg
# Tmax per entry
PROPERTY LABEL: Tmax (min)

smiles_text=COCCCOc1cc2c(cc1OC)-c1cc(=O)c(C(=O)O)cn1[C@H]1[C@@H]2OCC1(C)C property_label=Tmax unit_of_measurement=min observed=60
smiles_text=COCCCOc1cc2c(cc1OC)-c1c(F)c(=O)c(C(=O)O)cn1[C@H]1[C@@H]2CCC1(C)C property_label=Tmax unit_of_measurement=min observed=30
smiles_text=COCCCOc1cc2c(cc1OC)-c1cc(=O)c(C(=O)O)cn1[C@H]1[C@@H]2CCC1(C)C property_label=Tmax unit_of_measurement=min observed=30
